# ED50 listing for each entry below
- Tested on: Mus musculus
- EXPERIMENT: Potency after oral administration in vivo in mice
- Format: functional

O=C(O)/C=C\C(=O)O.c1nc(COCCC2CCCCC2)c[nH]1 | > 10 mg/kg
N#CCCOCCCc1c[nH]cn1.O=C(O)C(=O)O | 3.2 mg/kg
CCCCCCOCCCc1c[nH]cn1.O=C(O)/C=C\C(=O)O | > 30 mg/kg
O=C(O)/C=C\C(=O)O.c1nc(CCCOCCCC2CCCC2)c[nH]1 | 0.28 mg/kg
CCCCCOCCCc1c[nH]cn1.O=C(O)/C=C\C(=O)O | > 30 mg/kg

Enter recorded ED50 with Mus musculus for O=C(CCCOCCCc1c[nH]cn1)c1ccc(F)cc1.O=C(O)C(=O)O here.
0.28 mg/kg

Find ED50 for O=C(O)/C=C\C(=O)O.c1nc(CCCOCCCC2CCCCC2)c[nH]1 on Mus musculus and write it down.
1 mg/kg
